Reference for the values: patent US20080194574A1

Listing of recorded pIC50 by entry.
- TEST SYSTEM: viral kinase pUL-97 (Human cytomegalovirus, UniProt P16788)
- Construct: The pUL-97 gene was cloned into a baculovirus vector; GST (glutathione S-transferase) (N); made in house; host or cells: Sf9 insect cells, baculovirus
- Sequence (P16788 whole entry): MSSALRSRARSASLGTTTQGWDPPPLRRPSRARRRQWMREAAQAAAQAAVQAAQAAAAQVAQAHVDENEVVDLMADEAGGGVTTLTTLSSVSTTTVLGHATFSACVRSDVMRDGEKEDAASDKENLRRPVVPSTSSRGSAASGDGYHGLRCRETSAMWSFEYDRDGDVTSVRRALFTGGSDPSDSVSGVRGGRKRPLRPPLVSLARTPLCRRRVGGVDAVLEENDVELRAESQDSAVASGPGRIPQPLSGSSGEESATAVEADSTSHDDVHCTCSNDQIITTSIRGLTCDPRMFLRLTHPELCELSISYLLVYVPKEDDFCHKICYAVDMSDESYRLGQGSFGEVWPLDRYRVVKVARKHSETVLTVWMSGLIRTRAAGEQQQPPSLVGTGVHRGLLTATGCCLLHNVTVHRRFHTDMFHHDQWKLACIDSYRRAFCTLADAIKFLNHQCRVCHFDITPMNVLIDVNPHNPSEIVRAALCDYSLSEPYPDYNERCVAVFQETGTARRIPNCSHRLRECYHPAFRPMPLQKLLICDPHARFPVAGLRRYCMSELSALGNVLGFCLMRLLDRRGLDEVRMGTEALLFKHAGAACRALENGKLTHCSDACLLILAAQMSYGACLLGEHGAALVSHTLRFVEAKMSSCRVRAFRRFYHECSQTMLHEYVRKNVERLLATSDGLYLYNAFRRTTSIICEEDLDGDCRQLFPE
- TEST SUMMARY: UL97 kinase assay on Immobilon plate
- Format: biochemical
- CONDITIONS: inhibition of UL 97 kinase activity; class by IC50 / % inhibition at 10 μM or 100 μM; read-out: Activity Class [A, B, C]
pIC50: −log10 of the molar value.

>>> endpoint_value("CSc1ccccc1-c1cncc(N2CCN(c3ccccn3)CC2)n1 [compound 342]")
"4.00 to 5.00"
>>> endpoint_value("Cc1ccc(N2CCN(c3cncc(-c4csc5ccccc45)n3)CC2)cc1 [compound 231]")
"4.00 to 5.00"
>>> endpoint_value("Cc1cccc(-c2cncc(N3CCN(c4ccncc4)CC3)n2)c1 [compound 219]")
"5.00 to 6.00"

INPUT: Look up viral kinase pUL-97 (Human cytomegalovirus, UniProt P16788) data: pIC50 of COc1ccc(-c2cncc(N3CCN(c4ccc(Cl)c(Cl)c4)CC3)n2)cc1OC [compound 371] , then report it.
OUTPUT: 4.00 to 5.00

INPUT: Provide pIC50, tested on viral kinase pUL-97 (Human cytomegalovirus, UniProt P16788), for Cc1cccc(-c2cncc(N3CCN(c4ccc(Cl)cc4)CC3)n2)c1 [compound 325] .
OUTPUT: 4.00 to 5.00

INPUT: // fetch pIC50; item: Clc1ccc(N2CCN(c3cncc(-c4ccoc4)n3)CC2)cc1 [compound 349] ; system: viral kinase pUL-97 (Human cytomegalovirus, UniProt P16788)
OUTPUT: 4.00 to 5.00

INPUT: Consider the compound CC(=O)c1cccc(-c2cncc(N3CCN(c4cnccn4)CC3)n2)c1 [compound 312] tested on viral kinase pUL-97 (Human cytomegalovirus, UniProt P16788); state its pIC50.
OUTPUT: 5.00 to 6.00

INPUT: Under viral kinase pUL-97 (Human cytomegalovirus, UniProt P16788): report pIC50 of Cc1ccc(N2CCN(c3cncc(-c4ccc(F)c(Cl)c4)n3)CC2)cc1C [compound 316] .
OUTPUT: 4.00 to 5.00

INPUT: With viral kinase pUL-97 (Human cytomegalovirus, UniProt P16788) as the test system, provide measured pIC50 for this compound: Cc1ccc(-c2cncc(N3CCN(c4ccncc4)CC3)n2)cc1 [compound 220]
OUTPUT: 5.00 to 6.00

INPUT: Please look at COc1ccc(-c2cncc(N3CCC(c4ccccc4)CC3)n2)cc1F [compound 278] and tell me its recorded pIC50 on viral kinase pUL-97 (Human cytomegalovirus, UniProt P16788).
OUTPUT: 4.00 to 5.00

INPUT: Give pIC50; test system viral kinase pUL-97 (Human cytomegalovirus, UniProt P16788); compound CN(C)c1ccc(-c2cncc(N3CCC(c4ccccc4)CC3)n2)cc1 [compound 280]
OUTPUT: 5.00 to 6.00

INPUT: Give the observed pIC50 of COc1ccc(N2CCN(c3cncc(-c4ccc(C(N)=O)cc4)n3)CC2)cc1 [compound 290] for viral kinase pUL-97 (Human cytomegalovirus, UniProt P16788).
OUTPUT: > 6.00

###

Documented inhibition at 10 µM across a set of compounds
- TEST SYSTEM: RICK (Homo sapiens, UniProt O43353)
- Sequence (O43353 whole entry, species assumed): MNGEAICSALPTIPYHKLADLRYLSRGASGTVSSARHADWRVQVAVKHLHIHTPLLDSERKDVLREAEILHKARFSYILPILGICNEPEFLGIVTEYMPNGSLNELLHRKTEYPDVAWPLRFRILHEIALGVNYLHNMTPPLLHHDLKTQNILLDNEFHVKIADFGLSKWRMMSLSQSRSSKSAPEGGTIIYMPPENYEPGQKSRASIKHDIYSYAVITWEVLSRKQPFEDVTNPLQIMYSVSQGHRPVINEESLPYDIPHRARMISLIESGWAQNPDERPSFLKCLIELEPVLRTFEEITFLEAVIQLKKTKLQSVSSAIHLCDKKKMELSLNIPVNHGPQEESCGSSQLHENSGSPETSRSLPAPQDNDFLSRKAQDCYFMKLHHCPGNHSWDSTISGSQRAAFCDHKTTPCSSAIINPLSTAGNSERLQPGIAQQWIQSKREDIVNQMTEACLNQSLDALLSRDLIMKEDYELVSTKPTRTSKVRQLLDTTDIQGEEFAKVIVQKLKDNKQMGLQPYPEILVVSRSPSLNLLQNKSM
- TEST SUMMARY: General kinase assay protocol (33P-ATP, MBP substrate, filter plate): RICK
- Format: biochemical
- CONDITIONS: inhibition at concentration 10 μM; read-out: Inhibitory effect on Target RICK
- Description: General Assay Protocol for all Kinases (For UL97 a special UL97 kinase assay was used as described below.)

Worked examples follow.
>>> endpoint_value("COc1ccc(-c2cncc(Nc3cccc(C#N)c3)n2)cc1")
"> 50%"
>>> endpoint_value("COc1cccc(-c2cnc(N)c(Nc3ccc4[nH]ccc4c3)n2)c1")
"> 75%"

Turning now to a further compound:
INPUT: Dear colleague, please send me the reported inhibition at 10 µM for `Oc1ccc(-c2cncc(Nc3ccccc3)n2)cc1` when you can.
OUTPUT: > 75%

###

IC50 listing for selected compounds.
- TEST SYSTEM: viral kinase pUL-97 (Human cytomegalovirus)
- Construct: The pUL-97 gene was cloned into a baculovirus vector; GST (glutathione S-transferase) (N); made in house; host or cells: Sf9 insect cells, baculovirus
- TEST SUMMARY: UL97 kinase assay on Immobilon plate
- Type: biochemical
- CONDITIONS: inhibition of UL 97 kinase activity; class by IC50 / % inhibition at 10 μM or 100 μM; read-out: Activity Class [A, B, C]

Below, 5 compounds whose answers are already recorded.
>>> endpoint_value("CCOc1ccc(-c2cncc(N3CCN(c4ccc(C)cc4)CC3)n2)cc1 [compound 266]")
"10 to 100 µM"
>>> endpoint_value("COc1ccc(N2CCN(c3cncc(-c4ccccc4)n3)CC2)cc1 [compound 291]")
"10 to 100 µM"
>>> endpoint_value("OCc1ccc(-c2cncc(N3CCN(c4ccc(Cl)c(Cl)c4)CC3)n2)cc1 [compound 315]")
"1 to 10 µM"
>>> endpoint_value("Cc1cccc(N2CCN(c3cncc(-c4ccc5ccccc5c4)n3)CC2C)c1 (stereo not drawn) [compound 347]")
"10 to 100 µM"
>>> endpoint_value("COc1cccc(N2CCN(c3cncc(-c4ccc(CO)cc4)n3)CC2)c1 [compound 323]")
"1 to 10 µM"

Please find the next compound below.
INPUT: # return recorded IC50 for input OCc1ccc(-c2cncc(N3CCN(c4cccc(C(F)(F)F)c4)CC3)n2)cc1 [compound 254]
OUTPUT: 10 to 100 µM

###

- TEST SYSTEM: viral kinase pUL-97 (Human cytomegalovirus)
- Construct: The pUL-97 gene was cloned into a baculovirus vector; GST (glutathione S-transferase) (N); made in house; host or cells: Sf9 insect cells, baculovirus
- TEST SUMMARY: UL97 kinase assay on Immobilon plate
- Format: biochemical
- CONDITIONS: inhibition of UL 97 kinase activity; class by IC50 / % inhibition at 10 μM or 100 μM; read-out: Activity Class [A, B, C]
pIC50: −log10 of the molar value.
VALUE TYPE: pIC50

// solved cases for pIC50 follow
>>> endpoint_value("OCc1ccccc1-c1cncc(N2CCN(c3ccc(F)cc3F)CC2)n1")
"4.00 to 5.00"
>>> endpoint_value("c1ccc2c(-c3cncc(N4CCN(c5cnccn5)CC4)n3)cccc2c1")
"4.00 to 5.00"
>>> endpoint_value("CC(=O)c1ccc(-c2cncc(N3CCC(c4ccccc4)CC3)n2)cc1")
"5.00 to 6.00"
>>> endpoint_value("Cc1cccc(N2CCN(c3cncc(-c4ccc(C(N)=O)cc4)n3)CC2C)c1 (stereo not drawn)")
"5.00 to 6.00"
>>> endpoint_value("COc1ccc(N2CCN(c3cncc(-c4ccccc4CO)n3)CC2)cc1OC")
"4.00 to 5.00"

INPUT: Input `COc1ccccc1N1CCN(c2cncc(-c3ccc(C)cc3)n2)CC1` , output reported pIC50.
OUTPUT: 4.00 to 5.00

INPUT: Given `COc1ccc(N2CCN(c3cncc(-c4cc5ccccc5s4)n3)CC2)cc1` , respond with its pIC50.
OUTPUT: 5.00 to 6.00

INPUT: Give the reported pIC50 for this compound. `CSc1ccc(-c2cncc(N3CCC(c4ccccc4)CC3)n2)cc1`
OUTPUT: 5.00 to 6.00

###

- TEST SYSTEM: viral kinase pUL-97 (Human cytomegalovirus, UniProt P16788)
- Construct: The pUL-97 gene was cloned into a baculovirus vector; GST (glutathione S-transferase) (N); made in house; host or cells: Sf9 insect cells, baculovirus
- TEST SUMMARY: UL97 kinase assay on Immobilon plate
- Format: biochemical
- CONDITIONS: inhibition of UL 97 kinase activity; class by IC50 / % inhibition at 10 or 100 μM; read-out: Activity Class [A, B, C]
Recorded IC50 for the following compounds

>>> endpoint_value("OCc1cccc(-c2cncc(N3CCN(c4ccncc4)CC3)n2)c1")
"10 to 100 µM"
>>> endpoint_value("c1cncc(-c2cncc(N3CCN(c4cccc5[nH]ccc45)CC3)n2)c1")
"1 to 10 µM"

Now consider a different compound.
INPUT: Retrieve IC50 measured for `COc1ccc(N2CCN(c3cncc(-c4cccs4)n3)CC2)cc1OC` and print it.
OUTPUT: 1 to 10 µM

###

- TEST SYSTEM: viral kinase pUL-97 (Human cytomegalovirus, UniProt P16788)
- Construct: The pUL-97 gene was cloned into a baculovirus vector; GST (glutathione S-transferase) (N); made in house; host or cells: Sf9 insect cells, baculovirus
- TEST SUMMARY: UL97 kinase assay on Immobilon plate
- Type: biochemical
- CONDITIONS: inhibition of UL 97 kinase activity; class by IC50 / % inhibition at 10 or 100 μM; read-out: Activity Class [A, B, C]
pIC50: −log10 of the molar value.
VALUE TYPE: pIC50

Examples with answers:
>>> endpoint_value("COc1ccccc1N1CCN(c2cncc(-c3ccc(C(F)(F)F)cc3)n2)CC1 [compound 188]")
"4.00 to 5.00"
>>> endpoint_value("OCc1ccc(-c2cncc(N3CCN(c4ccccc4)CC3)n2)cc1 [compound 117]")
"5.00 to 6.00"

INPUT: Answer with the recorded pIC50 of Clc1cccc(N2CCN(c3cncc(-c4ccsc4)n3)CC2)c1 [compound 80] only.
OUTPUT: 4.00 to 5.00

INPUT: Identify pIC50 associated with the compound COc1ccc(OC)c(-c2cncc(N3CCN(c4ccc(F)cc4F)CC3)n2)c1 [compound 144]
OUTPUT: 4.00 to 5.00

INPUT: # return recorded pIC50 for input COc1ccc(N2CCN(c3cncc(-c4ccc(C(F)(F)F)cc4)n3)CC2)cc1OC [compound 172]
OUTPUT: 5.00 to 6.00

INPUT: Return value of pIC50 for input Cc1cccc(-c2cncc(N3CCN(c4cccc(C(F)(F)F)c4)CC3)n2)c1C [compound 156] , no commentary.
OUTPUT: 4.00 to 5.00

INPUT: Output pIC50 of OCc1cccc(-c2cncc(N3CCN(CCN4CCCC4)CC3)n2)c1 [compound 63]
OUTPUT: 4.00 to 5.00

INPUT: Specify reported pIC50 for the compound shown: COc1ccc(N2CCN(c3cncc(-c4ccccc4Oc4ccccc4)n3)CC2)cc1OC [compound 174]
OUTPUT: 4.00 to 5.00

INPUT: Indicate the recorded pIC50 value for this compound: c1ccc(-c2cncc(N3CCN(c4ccncc4)CC3)n2)cc1 [compound 67]
OUTPUT: 5.00 to 6.00

INPUT: Return pIC50 (reported value) for this compound: COc1cc(-c2cncc(N3CCN(c4cccc5[nH]ccc45)CC3)n2)cc(OC)c1OC [compound 37]
OUTPUT: 4.00 to 5.00
